Biological target: T1, Pab1 (Schizosaccharomyces pombe, UniProt P31209 80-653)
T1 sequence: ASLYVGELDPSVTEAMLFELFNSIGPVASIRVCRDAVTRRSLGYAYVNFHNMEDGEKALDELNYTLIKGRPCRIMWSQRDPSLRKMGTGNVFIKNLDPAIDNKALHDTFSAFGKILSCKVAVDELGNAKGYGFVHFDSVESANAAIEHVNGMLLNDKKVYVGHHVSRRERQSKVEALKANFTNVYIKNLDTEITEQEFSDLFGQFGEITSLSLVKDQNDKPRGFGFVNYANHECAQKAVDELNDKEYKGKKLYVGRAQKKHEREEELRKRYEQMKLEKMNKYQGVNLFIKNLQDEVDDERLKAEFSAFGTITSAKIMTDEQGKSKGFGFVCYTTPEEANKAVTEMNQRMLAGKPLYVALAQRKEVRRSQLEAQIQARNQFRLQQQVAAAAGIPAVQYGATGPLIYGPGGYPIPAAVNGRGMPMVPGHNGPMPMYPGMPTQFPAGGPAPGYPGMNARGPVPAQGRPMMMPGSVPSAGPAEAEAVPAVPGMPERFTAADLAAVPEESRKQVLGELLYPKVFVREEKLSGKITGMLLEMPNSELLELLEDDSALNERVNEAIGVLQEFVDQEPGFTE
Test: fluorescence polarization; one-site quadratic fit; printed label order scrambled, assigned by koff/kon; FP: 20 mM HEPES pH 7.4, 150 mM NaCl, 22 C, 2 h, 0.2 nM RNA; switchSENSE: same buffer + 0.001% Tween-20, 25 nM Pab1, 20 C; EMSA: 20 mM PIPES pH 6.8, 10 mM KCl, 90 mM NaCl, 2 mM Mg(OAc)2, 0.1 mM TCEP, 22 C, 200 nM RNA
Settings: protein: recombinant; tags: N-terminal GST cleaved with 3C protease; label: 5' 6-FAM
property-name: Kd (nM)
Entry rule: numbers only, all in nM.

AAAAAAAAAAAAAAAAAAAAAAAAAAAAAA (ssRNA) [A30] yielded Kd of 0.25
